experiment: basal MM1S mitochondrial membrane potential changes, profiling panel, cell-based, JC-1 fluorescence, 24 h, 100 nL compound (AID 1170); conditions: higher = more signal; further: test concentration not given here
recorded_endpoint: z-score
Give your answer as a number; write no unit.

Incoming: What z-score value was documented for this molecule, O=C1OCCC/C=C\[C@H]2OC34C=CCN(c5ccc6ccccc6c5)C(=O)[C@H]3N(CCCO)C(=O)[C@@H]4C12 (some centres undefined) ?
Outgoing: 1.37

Incoming: Using the record for COCCOC(=O)N1C(=O)[C@@]2(c3ccccc31)[C@H](c1ccc(OCCO)cc1)N1[C@H](c3ccccc3)[C@H](c3ccccc3)OC(=O)[C@H]1[C@@H]2C(=O)N1CCCCCCC1 , report its z-score.
Outgoing: -0.899

Incoming: Returns the measured z-score for the input molecule. Input: Cc1nc2cc(Br)ccc2c(=O)n1Cc1cccc(O)c1
Outgoing: -0.432

Incoming: Tell me the measured z-score of COC(=O)[C@@]1(Cc2ccc(OC)cc2)[C@H]2c3cc(C(=O)N4CCCC4)n(Cc4cc(C)n(C)n4)c3C[C@H]2CN1C(=O)c1ccccc1 , please.
Outgoing: -1.37

----------
Task for the reader: assign each of the following compounds its reported composite z-score.
molecular target: Pro-neuregulin-1, membrane-bound isoform (Homo sapiens); assay: NRG1 binders on small-molecule microarrays, primary screen, psychiatric disease protein project, biochemical, small-molecule microarray, fluorescence 635/667 (AID 1075); settings: NRG1 binding, 635 nm fluorescence, higher = more signal;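 further: score combines 667 nm spot fluorescence with signal to noise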

Incoming: Report composite z-score for COCCOC(=O)N1C(=O)[C@@]2(c3cc(C#CC4=CCCCC4)ccc31)[C@H](c1ccc(O)cc1)N1[C@H](c3ccccc3)[C@H](c3ccccc3)OC(=O)[C@H]1[C@@H]2C(=O)NC[C@H](O)c1ccccc1 please.
Outgoing: 1.3

Incoming: Looking for the measured composite z-score of CC1(C)C(=O)C(c2ccccc2)=C2CN3C(=O)N(CCc4ccccc4)C(=O)C3(Cc3ccc(C(F)(F)F)cc3)C=C21 (stereo not drawn) , can you help?
Outgoing: 0.613

Incoming: Which composite z-score is reported for this compound? [N-]=[N+]=NCc1ccccc1[C@@H]1OC(c2ccc(OCCCO)cc2)=N[C@]1(Cc1ccccc1)C(=O)NCCN1CCOCC1
Outgoing: 1.25

----------
assay: E. coli acrAB mutant growth effects, primary screen, E. coli filamentation inducers, strain DRC39, OD650, 48 h (AID 1179);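 further: screen aims at cell division blockers that make cells filament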; details: E. coli DRC39 delta-acrAB growth, higher = more signal, called active from +8 up or from −8 down
Exercise: state measured z-score for each of the compounds provided.
Number only, no unit.

Incoming: Which z-score is listed for C=CCNC(=O)[C@@H]1[C@H]2C(=O)O[C@H](c3ccccc3)[C@H](c3ccccc3)N2[C@H](c2ccc(OCCO)cc2)[C@@]12C(=O)N(C(=O)OCCOC)c1ccc(C#CCCO)cc12 ?
Outgoing: 0.298

Incoming: Reported z-score for Cc1cccc([C@H]2C[C@H]3C(Br)=C[C@@H]2C(=O)[C@]32CO2)c1 : what is it?
Outgoing: -0.0628

Incoming: Name the recorded z-score for Cc1nc2cc(Br)ccc2c(=O)n1Cc1cccc(O)c1 .
Outgoing: 0.776

Incoming: Recorded z-score of CC(=O)N1CC(C(O)C2C=CC3C(=O)NC(=O)C3N2Nc2ccc(Cl)cc2Cl)c2ccccc21 (stereo unspecified) , please.
Outgoing: -0.547

Incoming: Any idea what z-score was measured for CCCC=C(CCC)[C@@H](NC(=O)CCc1ccccc1)c1ccc(C(F)(F)F)cc1 ?
Outgoing: -0.0054

Incoming: Fill in: z-score of CN(C)CCCNC(=O)[C@@H]1c2ccccc2C(=O)N(C2CCCCC2)[C@H]1c1ccc(CO)cc1 is ___
Outgoing: 0.515

Incoming: # lookup: z-score of COCCOC(=O)N1C(=O)[C@@]2(c3ccccc31)[C@H](c1ccccc1OCCO)N1[C@H](c3ccccc3)[C@H](c3ccccc3)OC(=O)[C@H]1[C@@H]2C(=O)N1CCCCCCC1
Outgoing: -1.15

Incoming: Please report the recorded z-score for CO[C@H]1O[C@H](CO)[C@@H](OC(=O)CCc2ccccc2)[C@H](OC(=O)c2cc3ccccc3[nH]2)[C@H]1OC(=O)c1cc2ccccc2[nH]1 .
Outgoing: 1.2

Incoming: # input compound: CN1C(=O)C2C=CC(C(O)c3cc(C(F)(F)F)cc(C(F)(F)F)c3)N(NC(=O)OC(C)(C)C)C2C1=O (stereo unspecified) ; wanted: its z-score
Outgoing: -1.22

Incoming: I'd like to know its z-score. The compound in question is Cc1ccc(S[C@]2(C(=O)NC(C)C)CC(=O)N(C(C)C)[C@@H]2c2ccc(CO)cc2I)cc1
Outgoing: -0.0992

Incoming: So what's the measured z-score for this one? C=C(/C(=C/C[C@@H](OC(C)=O)c1ccc(OCCO)cc1)c1cc(C(=O)OC)ccc1OC)C(C)C
Outgoing: 0.0954

Incoming: Need z-score of COCCOC(=O)N1C(=O)[C@@]2(c3cc(C#CCCO)ccc31)[C@H](C(=O)N1CCCCCCC1)[C@H]1C(=O)O[C@H](c3ccccc3)[C@H](c3ccccc3)N1[C@@H]2c1ccccc1OCCO , thanks.
Outgoing: -0.359

Incoming: May I ask what z-score has been recorded for CN(C)CCCCCCNC(=O)[C@@H]1C[C@@H]2C(=O)N[C@@H](CCCCN)C(=O)N2[C@@H]1c1ccc(O)cc1 ?
Outgoing: -1.59

Incoming: Quick one: z-score for CN1C(=O)C2C=CC(C(O)c3ccc(F)cc3)N(NC(=O)OC(C)(C)C)C2C1=O (stereo unspecified) ?
Outgoing: -0.764

Incoming: Quick one: z-score of Cc1cccc([C@H]2C[C@H]3C(I)=C[C@@H]2C(=O)[C@]32CO2)c1 ?
Outgoing: -1.15

Incoming: So what's the measured z-score for this one? CCCCCN1CC=CC23O[C@@H]4C=CCOC(=O)[C@@H]4[C@H]2C(=O)N(CCO)[C@@H]3C1=O (stereo partly specified)
Outgoing: -0.193

----------
Exercise: for every item that follows, state its recorded z-score.
target: NADPH oxidase 5 (Homo sapiens) (UniProt Q96PH1); assay: NOX5-dependent H2O2 signal modulators, primary screen, NOX inhibitor project, cell-based, HEK293-NOX5, Amplex Red fluorescence (AID 1161); details: HEK293-NOX5, ionomycin, 45 min, higher = more signal
Sequence (Q96PH1 whole entry, looked up): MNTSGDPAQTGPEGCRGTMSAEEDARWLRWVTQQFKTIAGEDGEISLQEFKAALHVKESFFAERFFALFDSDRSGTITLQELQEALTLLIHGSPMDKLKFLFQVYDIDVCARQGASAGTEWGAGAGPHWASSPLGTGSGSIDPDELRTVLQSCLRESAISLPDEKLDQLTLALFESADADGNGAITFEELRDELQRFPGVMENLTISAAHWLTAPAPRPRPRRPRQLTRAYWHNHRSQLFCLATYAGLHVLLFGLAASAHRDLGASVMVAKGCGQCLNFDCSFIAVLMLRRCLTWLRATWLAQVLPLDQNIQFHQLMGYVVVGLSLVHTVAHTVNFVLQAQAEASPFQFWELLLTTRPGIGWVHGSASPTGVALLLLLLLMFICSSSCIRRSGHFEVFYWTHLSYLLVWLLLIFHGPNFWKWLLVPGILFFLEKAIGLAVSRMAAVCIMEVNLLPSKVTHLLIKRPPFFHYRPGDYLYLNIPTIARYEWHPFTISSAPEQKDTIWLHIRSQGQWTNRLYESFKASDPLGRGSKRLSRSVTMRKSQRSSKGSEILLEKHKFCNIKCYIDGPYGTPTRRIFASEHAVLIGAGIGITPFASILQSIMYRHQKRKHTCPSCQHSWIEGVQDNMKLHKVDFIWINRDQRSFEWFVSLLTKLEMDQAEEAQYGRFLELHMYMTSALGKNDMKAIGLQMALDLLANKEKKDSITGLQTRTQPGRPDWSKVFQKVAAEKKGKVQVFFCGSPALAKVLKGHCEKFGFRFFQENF
Answer as a number with no unit attached.

Incoming: Name the reported z-score value associated with the compound CCOC(=O)C[C@H]1[C@H](OC(=O)c2cc3ccccc3oc2=O)[C@@H](NC(=O)c2ccc3ccccc3c2)c2cc(OCCCO)ccc2N1C(=O)Cc1ccc(OC)cc1
Outgoing: 1.94

Incoming: Look up z-score for this compound: COc1ccc(CCNC(=O)[C@@]2(Cc3ccccc3I)c3ccccc3C(=O)N(Cc3ccccc3Cl)[C@H]2c2ccc(CO)cc2)cc1
Outgoing: 1.39

Incoming: Entry COc1cc(NN2C(C(O)c3ccccc3)C=CC3C(=O)N(C)C(=O)C32)cc(OC)c1OC (stereo not given) has what z-score?
Outgoing: -6.19

Incoming: z-score for [N-]=[N+]=NCc1ccccc1[C@@H]1OC(c2ccc(OCCCO)cc2)=N[C@]1(Cc1ccccc1N=[N+]=[N-])C(=O)NCCN1CCOCC1 ?
Outgoing: -1

Incoming: Which measured z-score value corresponds to COc1ccc(C(=O)Nc2cccc(CN3C(=O)[C@@]4(O[C@@H](CC(=O)N(CCO)Cc5ccccc5)[C@H]([Si](C)(C)c5ccc(OC)cc5)[C@H]4C)c4ccccc43)c2)cc1 ?
Outgoing: 2.08

Incoming: Report z-score for [N-]=[N+]=NCc1ccccc1[C@H]1OC(c2ccc(OCCCO)cc2)=N[C@@]1(Cc1ccccc1)C(=O)NCCN1CCOCC1 please.
Outgoing: 1.58

Incoming: Given COCCOC(=O)N1C(=O)[C@@]2(c3cc(C#CCCO)ccc31)[C@H](C(=O)N1CCCCCCC1)[C@H]1C(=O)O[C@H](c3ccccc3)[C@H](c3ccccc3)N1[C@@H]2c1ccccc1OCCO , state its recorded z-score.
Outgoing: 1.73

Incoming: Field request: z-score | item: COc1ccc([Si](C)(C)[C@H]2[C@H](CC(=O)N3CCC[C@H]3CO)O[C@@]3(C(=O)N(Cc4ccc(N5CCC5=O)cc4)c4ccccc43)[C@@H]2C)cc1
Outgoing: 4.56

Incoming: Looking for the measured z-score of COc1cc(CO)cc(I)c1O[C@H]1C=C(C(=O)NCCO)C[C@@H](NCC2CCCCC2)[C@@H]1O , can you help?
Outgoing: 1.04

Incoming: Please give the measured z-score for this compound: CCC(CC)C(O)C1C=CC2C(=O)N(c3ccccc3)C(=O)C2N1Nc1ccc([N+](=O)[O-])cc1 (stereo not given)
Outgoing: -1.03

Incoming: I'd like to know its z-score. The compound in question is CC(=O)n1cc(C(O)C2C=CC3C(=O)N(c4ccccc4)C(=O)C3N2Nc2ccc(C(C)C)cc2)c2ccccc21 (stereo not given)
Outgoing: -3.44

Incoming: Returns the measured z-score for the input compound. Input: O=C1N[C@@H](Cc2ccccc2)C(=O)N2[C@@H]1C[C@@H](C(=O)O)[C@H]2c1ccc(O)cc1
Outgoing: -2.63

Incoming: What does the data say about its z-score? Entry: CC(C)CNC(=O)[C@@]1(c2ccc([N+](=O)[O-])cc2)CC(=O)N(C2CCCCC2)[C@@H]1c1ccc(CO)cc1
Outgoing: 0.668

Incoming: Give the measured z-score of C=C(COC)C(=O)CC[C@@H](OC(=O)c1cccnc1)c1ccccc1OCCO .
Outgoing: -1.4

Incoming: What value of measured z-score is listed for O=c1cccc(-c2ccco2)o1 ?
Outgoing: -0.722

Source of measurements: PubChem BioAssay
